Could you please report measured CL for the items listed next?
Assay: […] clearance in Beagle dog at 1 mg/kg, po in 30% captisol formulation or 0.5 mg/kg, iv measured after 24 hrs
Assay type: ADME, organism-based, Canis lupus familiaris
Settings: in vivo
Numbers only, in mL/min/kg.

INSERT INTO assay_data (molecule, value) VALUES
  ('Cc1nnc(-c2ccc(-c3cc(F)cc4c3C(=O)N([C@H](C3CC3)C(C)(C)O)C4)cc2)o1', 21),
  ('Cc1nnc(-c2ccc(-c3c(F)c(F)cc4c3C(=O)N([C@H](C3CC3)C(C)(C)O)C4)cc2)o1', 11),
  ('Cc1nnc(-c2ccc(-c3cc(F)c(F)c4c3C(=O)N([C@H](C3CC3)C(C)(C)O)C4)cc2)o1', 17);

Requested read-out: CL. Entry: Cc1nnc(-c2ccc(-c3c(F)c(F)cc4c3C(=O)N([C@@H](C(C)(C)O)C(F)(F)F)C4)cc2)o1
23

---

Assay: Plasma protein binding in human assessed as unbound fraction
Format: ADME, cell-free
Quick rule for you: fraction unbound under 0.05 gets 1.0, anything else gets 0.0.

INSERT INTO measurements (molecule, assigned_label) VALUES
  ('Cc1nnc(-c2ccc(-c3c(F)c(F)cc4c3C(=O)N([C@@H](C(C)(C)O)C(F)(F)F)C4)cc2)o1', 0.0),
  ('Cc1nnc(-c2ccc(-c3c(F)c(F)cc4c3C(=O)N([C@H](C3CC3)C(C)(C)O)C4)cc2)o1', 0.0);

hey, is fraction unbound for Cc1nnc(-c2ccc(-c3cc(F)cc4c3C(=O)N([C@H](C3CC3)C(C)(C)O)C4)cc2)o1 lower than 0.05 or not?
1.0

# strict comparison: is reported fraction unbound < 0.05? input = Cc1nnc(-c2ccc(-c3cccc4c3C(=O)N([C@H](C3CC3)C(C)(C)O)C4)cc2)o1
1.0

---

Assay: Oral bioavailability in Wistar Han rat at 4 mg/kg measured after 24 hrs
Type: ADME, organism-based
Conditions: in vivo
Measured Attribute: bioavailability (%)
Give bare numbers, in %.

Entry under review: Cc1nnc(-c2ccc(-c3cc(F)cc4c3C(=O)N([C@H](C3CC3)C(C)(C)O)C4)cc2)o1 . Reported bioavailability?
38

---

Experiment: Plasma protein binding in dog assessed as unbound fraction
Assay type: ADME, cell-free, Canis lupus familiaris
Measured Attribute: fraction unbound
One number for each entry.

INSERT INTO assay_data (molecule, value) VALUES
  ('Cc1nnc(-c2ccc(-c3cc(F)c(F)c4c3C(=O)N([C@H](C3CC3)C(C)(C)O)C4)cc2)o1', 0.14),
  ('Cc1nnc(-c2ccc(-c3c(F)c(F)cc4c3C(=O)N([C@@H](C(C)(C)O)C(F)(F)F)C4)cc2)o1', 0.11);

Hi, could you look up fraction unbound for each item in my list?
1. Cc1nnc(-c2ccc(-c3cc(F)cc4c3C(=O)N([C@H](C3CC3)C(C)(C)O)C4)cc2)o1
2. Cc1nnc(-c2ccc(-c3cccc4c3C(=O)N([C@H](C3CC3)C(C)(C)O)C4)cc2)o1
3. Cc1nnc(-c2ccc(-c3c(F)c(F)cc4c3C(=O)N([C@H](C3CC3)C(C)(C)O)C4)cc2)o1

1. 0.2
2. 0.1
3. 0.2

---

Assay: Unbound volume of distribution in Wistar Han rat at 5 mg/kg, po or 2 mg/kg, iv measured after 24 hrs
Assay type: ADME, organism-based
Conditions: in vivo
Measured Attribute: Vdu (L/kg)
Give bare numbers, in L/kg.

INSERT INTO measurements (molecule, value) VALUES
  ('Cc1nnc(-c2ccc(-c3c(F)c(F)cc4c3C(=O)N([C@@H](C(C)(C)O)C(F)(F)F)C4)cc2)o1', 18),
  ('Cc1nnc(-c2ccc(-c3cc(F)c(F)c4c3C(=O)N([C@H](C3CC3)C(C)(C)O)C4)cc2)o1', 36),
  ('Cc1nnc(-c2ccc(-c3cccc4c3C(=O)N([C@H](C3CC3)C(C)(C)O)C4)cc2)o1', 36);

Request the reported Vdu associated with Cc1nnc(-c2ccc(-c3c(F)c(F)cc4c3C(=O)N([C@H](C3CC3)C(C)(C)O)C4)cc2)o1
10

---

Test: MRT in Beagle dog at 1 mg/kg, po in 30% captisol formulation or 0.5 mg/kg, iv measured after 24 hrs
Assay type: ADME, organism-based, Canis lupus familiaris
Details: in vivo
Measured Attribute: MRT (h)
One number for each entry, in h.

# return MRT for each item in the list
1. Cc1nnc(-c2ccc(-c3c(F)c(F)cc4c3C(=O)N([C@H](C3CC3)C(C)(C)O)C4)cc2)o1
2. Cc1nnc(-c2ccc(-c3cc(F)c(F)c4c3C(=O)N([C@H](C3CC3)C(C)(C)O)C4)cc2)o1
3. Cc1nnc(-c2ccc(-c3cc(F)cc4c3C(=O)N([C@H](C3CC3)C(C)(C)O)C4)cc2)o1
4. Cc1nnc(-c2ccc(-c3c(F)c(F)cc4c3C(=O)N([C@@H](C(C)(C)O)C(F)(F)F)C4)cc2)o1

[10, 11, 10, 11]

---

Test: MRT in Beagle dog at 1 mg/kg, po in 10% tween 80 formulation or 0.5 mg/kg, iv measured after 24 hrs
Format: ADME, organism-based, Canis lupus familiaris
Conditions: in vivo
Measured Attribute: MRT (h)
Give bare numbers, in h.

Quick one: MRT of Cc1nnc(-c2ccc(-c3cccc4c3C(=O)N([C@H](C3CC3)C(C)(C)O)C4)cc2)o1 ?
8.6

---

So I've got a bunch of compounds here, and I need their Kp uu values.
Test: Unbound brain-to-plasma concentration ratio in rat
Assay type: ADME
Conditions: read-out: K(p,uu,brain)

INSERT INTO measurements (molecule, value) VALUES
  ('Cc1nnc(-c2ccc(-c3c(F)c(F)cc4c3C(=O)N([C@@H](C(C)(C)O)C(F)(F)F)C4)cc2)o1', 0.4);

Hello, I would appreciate it if you could give Kp uu for each entry below.
1. Cc1nnc(-c2ccc(-c3cc(F)c(F)c4c3C(=O)N([C@H](C3CC3)C(C)(C)O)C4)cc2)o1
2. Cc1nnc(-c2ccc(-c3cccc4c3C(=O)N([C@H](C3CC3)C(C)(C)O)C4)cc2)o1
3. Cc1nnc(-c2ccc(-c3c(F)c(F)cc4c3C(=O)N([C@H](C3CC3)C(C)(C)O)C4)cc2)o1

0.1
0.5
0.2

---

Assay: Intrinsic clearance in Wistar Han rat at 5 mg/kg, po or 2 mg/kg, iv measured after 24 hrs
Format: ADME, organism-based
Details: in vivo
Exercise: state measured CL for each of the compounds provided.
One number for each entry, in mL/min/kg.

INSERT INTO measurements (molecule, unit_descriptor, value) VALUES
  ('Cc1nnc(-c2ccc(-c3cccc4c3C(=O)N([C@H](C3CC3)C(C)(C)O)C4)cc2)o1', 'mL/min/kg', 211);

# return CL for each item in the list
1. Cc1nnc(-c2ccc(-c3c(F)c(F)cc4c3C(=O)N([C@H](C3CC3)C(C)(C)O)C4)cc2)o1
2. Cc1nnc(-c2ccc(-c3cc(F)c(F)c4c3C(=O)N([C@H](C3CC3)C(C)(C)O)C4)cc2)o1

1. 30
2. 169

Using the record for Cc1nnc(-c2ccc(-c3c(F)c(F)cc4c3C(=O)N([C@@H](C(C)(C)O)C(F)(F)F)C4)cc2)o1 , report its CL.
30

---

Answer each item with its documented MRT.
Assay: MRT in Wistar Han rat at 5 mg/kg, po or 2 mg/kg, iv measured after 24 hrs
Assay type: ADME, organism-based
Conditions: in vivo
Numbers only, in h.

Would you please look over these solved cases?
INSERT INTO measurements (molecule, measured_attribute, unit_descriptor, value) VALUES
  ('Cc1nnc(-c2ccc(-c3cccc4c3C(=O)N([C@H](C3CC3)C(C)(C)O)C4)cc2)o1', 'MRT', 'h', 3),
  ('Cc1nnc(-c2ccc(-c3c(F)c(F)cc4c3C(=O)N([C@@H](C(C)(C)O)C(F)(F)F)C4)cc2)o1', 'MRT', 'h', 9.9);

Give measured MRT for every item shown.
1. Cc1nnc(-c2ccc(-c3cc(F)c(F)c4c3C(=O)N([C@H](C3CC3)C(C)(C)O)C4)cc2)o1
2. Cc1nnc(-c2ccc(-c3c(F)c(F)cc4c3C(=O)N([C@H](C3CC3)C(C)(C)O)C4)cc2)o1

1: 3.7; 2: 5.7

---

Target: PXR (NR1I2) (Homo sapiens, UniProt O75469)
Sequence (O75469 whole entry): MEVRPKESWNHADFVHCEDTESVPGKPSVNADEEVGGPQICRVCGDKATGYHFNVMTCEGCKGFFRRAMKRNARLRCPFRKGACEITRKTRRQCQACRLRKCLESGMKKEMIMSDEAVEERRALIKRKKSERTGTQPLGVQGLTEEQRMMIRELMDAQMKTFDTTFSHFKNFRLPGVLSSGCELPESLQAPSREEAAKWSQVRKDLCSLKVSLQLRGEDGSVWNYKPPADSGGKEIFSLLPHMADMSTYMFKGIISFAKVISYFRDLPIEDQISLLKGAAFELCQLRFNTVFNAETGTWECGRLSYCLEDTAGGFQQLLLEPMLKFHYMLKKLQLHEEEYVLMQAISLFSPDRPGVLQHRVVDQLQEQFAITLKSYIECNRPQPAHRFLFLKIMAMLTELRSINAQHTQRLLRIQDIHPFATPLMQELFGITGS
Experiment: Activation of PXR (unknown origin) assessed as maximal efficacy relative to control
Format: toxicity
Assign Emax to each entry below.
Answers are plain numbers, in %.

Example results:
INSERT INTO measurements (molecule, tgt, value) VALUES
  ('Cc1nnc(-c2ccc(-c3c(F)ccc4c3C(=O)N([C@H](C3CC3)C(C)(C)O)C4)cc2)o1', 'PXR (NR1I2) (Homo sapiens, UniProt O75469)', 100),
  ('Cc1nnc(-c2ccc(-c3cc(F)cc4c3C(=O)N([C@H](C3CC3)C(C)(C)O)C4)cc2)o1', 'PXR (NR1I2) (Homo sapiens, UniProt O75469)', 75),
  ('Cc1nnc(-c2ccc(-c3ccc(F)c4c3C(=O)N([C@H](C3CC3)C(C)(C)O)C4)cc2)o1', 'PXR (NR1I2) (Homo sapiens, UniProt O75469)', 97),
  ('Cc1nnc(-c2ccc(-c3c(F)c(F)cc4c3C(=O)N([C@@H](C(C)(C)O)C(F)(F)F)C4)cc2)o1', 'PXR (NR1I2) (Homo sapiens, UniProt O75469)', 80);

GET /values?readout=Emax&system=PXR (NR1I2) (Homo sapiens, UniProt O75469)&item= Cc1nnc(-c2ccc(-c3c(F)c(F)cc4c3C(=O)N([C@H](C3CC3)C(C)(C)O)C4)cc2)o1
100
